# target under test: T1, ZFP SBS#1487 (synthetic)
# T1 chain: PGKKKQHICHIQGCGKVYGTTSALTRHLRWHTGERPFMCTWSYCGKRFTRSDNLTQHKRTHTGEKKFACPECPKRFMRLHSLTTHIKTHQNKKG
# protocol notes: EMSA
# measurement conditions: tags: MBP fusion
measure: Kd (nM)
The response must be a number in nM with no trailing unit.

Prompt: Query (binder): TTGAAGGTT (dsDNA) DNA 1: TTGAAGGTT DNA 2: AACCTTCAA ; field requested: Kd
Response: 0.188
